Sourced from PubChem BioAssay AID1159580

Below, each entry is listed with its recorded normalized growth.
Experiment: chemical genetic growth profiling, strain panel (AID 1159580);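 further: tested at 20 µM; growth read once vehicle control cultures reached saturation at 30 °C; 1 = growth at the plate median or of vehicle wells; lower values mean less growth of the strain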
Details: S. cerevisiae deletion strains, growth OD, locus YER016W, strain bim1, stronger effect = lower value
The whole screen tested about 5,500 compounds, of which about 2,000 (36%) were called active. Roughly 18% stayed inconclusive and do not appear here. The list shows a part of the results.
A bare number is all that is needed in reply.

Solved cases (5 shown):
compound	reported metric	reported result
Cc1cc(/C=C/c2ccc3cc(N(C)C)ccc3[n+]2C)c(C)n1-c1ccccc1	normalized growth	0.992
COc1ccc(-c2oc3cc(OC)c(OC)c(OC)c3c(=O)c2OC)cc1	normalized growth	0.988
COc1ccc(-c2oc3cc(OC)c(OC)c(OC)c3c(=O)c2OC)cc1OC	normalized growth	0.986
NC(=O)CS(=O)C(c1ccccc1)c1ccccc1 (stereo not given)	normalized growth	1.02
CCC(=O)OC1[C@@H]2CC3=C4CC(=O)O[C@@H](c5ccoc5)[C@]4(C)CCC3[C@@](C)(C2=O)[C@@H](CC(=O)OC)C1(C)C (stereo not given in full)	normalized growth	0.991

What value of normalized growth has been reported for the following compound? O=NN(CCCl)C(=O)NCCCl 0.875

Can you handle Clc1ccc(COC(Cn2ccnc2)c2ccc(Cl)cc2Cl)cc1 (stereo not given) next? 0.0634

What would you report for NCC[C@@H](O)C(=O)N[C@@H]1C[C@H](N)[C@@H](O[C@H]2O[C@H](CN)[C@@H](O)[C@H](O)[C@H]2O)[C@H](O)[C@H]1O[C@H]1O[C@H](CO)[C@@H](O)[C@H](N)C1O (stereo not given in full) ? 1

Now try CC(O)(P(=O)(O)O)P(=O)(O)O . 0.979

And the next one, NCCCNCCSP(=O)(O)O ? 0.991

====

Experiment: chemical genetic growth profiling, strain panel (AID 1159580);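 further: tested at 20 µM; growth read once vehicle control cultures reached saturation at 30 °C; 1 = growth at the plate median or of vehicle wells; lower values mean less growth of the strain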
Settings: S. cerevisiae deletion strains, growth OD, locus YHR200W, strain rpn10, stronger effect = lower value
Screen size: about 5,500 compounds; about 2,000 (36%) were called active. Inconclusive results (about 18%) are left out. Some of the results follow.
reported metric: normalized growth
The reply should be a number, written without any unit.

compound	reported result
COP(=S)(OC)Oc1ccc([N+](=O)[O-])cc1	0.987
NC(N)=NCCN1CCCCCCC1	1.03
NC(C(=O)O)C(O)C(=O)O (stereo unspecified)	1.02
COc1ccc2c(c1)OCC(Cc1ccc(OC)c(OC)c1)C2=O (stereo unspecified)	0.992
O=C(O)C(O)C(O)C(O)C(O)C(=O)O (stereo unspecified)	0.983

Could you tell me which normalized growth is on file for O=C(O)C1CCCNC1 (stereo unspecified) ? 1.01

Note, next up: Clc1ccc(C(c2ccccc2Cl)C(Cl)Cl)cc1 (stereo unspecified) 0.98

Do the same for CCC(=O)OC1[C@@H]2CC3=C4CC(=O)O[C@@H](c5ccoc5)[C@]4(C)CCC3[C@@](C)(C2=O)[C@@H](CC(=O)OC)C1(C)C (stereo partly specified) please 1.02

Also check CCCNC(=O)NS(=O)(=O)c1ccc(Cl)cc1 1.01

Cool, now NC(N)=NCCCCN=C(N)N 1.01

What about N[C@@H](C(=O)O)[C@@H](O)[C@H](O)[C@H](O)CO ? 1.02

How about this compound: O=C(O)C(O)C(O)C(=O)O (stereo unspecified) 0.99
